ASSAY PROTOCOL: in vivo
RUN CONDITIONS: mouse, iv, 10 mg/kg
What AUC(0-inf) was measured for each of the following?
Give bare numbers, in µM·h.

>>> value("O=C(O)[C@@H]1Cc2c([nH]c3ccccc23)[C@@H](c2ccc(Cl)cc2Cl)N1 [Compound 1, reference compound]")
38.4

Asked: Find the recorded AUC(0-inf) belonging to O=C(O)[C@@H]1Cc2c([nH]c3cc(F)ccc23)[C@@H](c2ccc(Cl)cc2Cl)N1 [Compound 20c] and report it.
Given back: 49.6

* * *

ASSAY PROTOCOL: in vivo
RUN CONDITIONS: mouse, po, 40 mg/kg
RECORDED ENDPOINT: AUC(0-t) (µM·h)
One number for each entry, in µM·h.

>>> value("O=C(O)[C@@H]1Cc2c([nH]c3cc(F)ccc23)[C@@H](c2ccc(Cl)cc2Cl)N1 [Compound 20c]")
110

Moving on to another compound below.
Asked: Find the recorded AUC(0-t) belonging to O=C(O)[C@@H]1Cc2c([nH]c3ccccc23)[C@@H](c2ccc(Cl)cc2Cl)N1 [Compound 1, reference compound] and report it.
Given back: 79
